Known composite z-score of a selection of molecules
assay: binders of probe aFSTL3 on microarray, primary screen, stem cell growth factor project, biochemical, small-molecule microarray, fluorescence 635/667 (AID 1064); conditions: higher = more signal;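 further: measures binding of the biotinylated anti-FSTL3 antibody to printed compounds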

molecule | composite z-score
COc1ccccc1CN1C(=O)c2ccccc2[C@@]2(Cc3ccccc3N(C(C)C)C2=O)[C@@H]1c1ccc(CO)cc1 | -0.111
CC(C)[Si]1(C(C)C)O[C@@H](c2ccccc2)c2cc(C3CC3)nc(-c3ccccc3)c21 | -0.324
Cc1ccc(C2CC=C(C(=O)O)CN2S(=O)(=O)c2ccc(C)cc2)cc1 (stereo unspecified) | 0.004
Cc1cc2c(nc1C)CCCN2CC(O)CN1CCN(C)CC1 (stereo unspecified) | 0.499
CO[C@@H]1COC(=O)CC=C[C@@H](C)COC(=O)[C@H](COCc2ccccc2)NC(=O)CC=C[C@H]1C | -0.611
COc1ccc([Si](C)(C)[C@H]2[C@H](CC(=O)N3CCC[C@H]3CO)O[C@@]3(C(=O)N(Cc4cccc(N5C(=O)COc6ccccc65)c4)c4ccccc43)[C@@H]2C)cc1 | -0.126
O=C1C[C@]2(c3ccc([N+](=O)[O-])cc3)C(=O)N(CCN3CCOCC3)c3cc(CO)ccc3[C@H]2N1CC12CC3CC(CC(C3)C1)C2 | -0.0111
CC(=O)OC[C@H]1O[C@H](C#CCCCc2ccccc2)C=C[C@@H]1OC(C)=O | -0.0129
CCc1cc2c(nc1CC)CCN(CCC(C)=NO[C@@H](C)c1cc(-c3c(C)cc(C)cc3C)no1)C2 | -0.291
CC(CCN1CCCCc2nc(C)c(C)cc21)=NOC(C)CN1CCCCc2nc(C)c(C)cc21 (stereo unspecified) | -0.275
COC(=O)[C@H](C)NC(=O)CCC1CC(OC(=O)NCCc2ccc(F)cc2)CC2(CCCC(COC(=O)NCCc3ccc(Cl)cc3)O2)O1 (stereo partly specified) | -0.655
COC(=O)[C@H](C)NC(=O)CCC1CC(OC(=O)NCc2cccc3ccccc23)CC2(CCCC(COC(=O)NCC3CCCCC3)O2)O1 (stereo partly specified) | -0.641
COC(=O)CC=C[C@@H](C)[C@@H](C=NO[C@@H](C)c1cc(-c2c(C)cc(C)cc2C)no1)OC | 1.46
CC(C)(C)N1CC=CC23O[C@@H]4C=CCCOC(=O)C4[C@H]2C(=O)N(CCCCCO)[C@@H]3C1=O (stereo partly specified) | -0.0873
CC(C)=CCCC(C)=CCON=C1[C@H]2CCn3c(=O)n(Cc4cc5c(cc4Cl)OCO5)c(=O)n3[C@H]2[C@H](O)[C@@H]2O[C@H]12 | -0.405
CO[C@H]1O[C@H](CO)[C@@H](OC(=O)Nc2ccc(C#N)cc2)[C@H](OC(=O)c2cc3ccccc3[nH]2)[C@H]1OC(=O)c1cc2ccccc2[nH]1 | 0.0407

* * *

system: Neuregulin-1 EGF-like domain; assay: binders of neuregulin-1 EGF-like domain, primary screen, biochemical, small-molecule microarray, 635 nm fluorescence (AID 1081); conditions: small-molecule microarray binding, higher = more signal;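 further: binding of the protein to compounds printed on small-molecule microarray slides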
Output: class label from composite z-score. Mapping: lowest = under -0.2, middle = from -0.2 up to 1, highest = 1 and over

compound | category-label
O=C1CCCC2OC12C(O)CCc1ccccc1 (centres undefined) | lowest
C[C@@H]1CCC2C(=O)N(Cc3ccccc3)C[C@@H](O)CN2[C@H]1c1ccc(Br)cc1 (some centres undefined) | middle
COC(=O)[C@@H]1N=C(c2ccc(OCCCO)cc2)O[C@@H]1c1ccccc1N=[N+]=[N-] | highest
CC(C)NC(=O)[C@@]1(C)c2ccccc2C(=O)N(Cc2cc(F)cc(C(F)(F)F)c2)[C@H]1c1ccc(CO)cc1 | highest
CCOc1ccc(N2C(=O)/C(=C/C=C/c3ccccc3OC)S(=O)(=O)C2c2cccc([N+](=O)[O-])c2)cc1 (centres undefined) | middle
COC(=O)C1=C(C)[C@@H](O)[C@@H](C)[C@H](c2c(OC)c(OC)c(C)c(OC)c2OC)O1 | middle
COC(=O)CC=C[C@H](C)[C@@H](OCc1ccccc1Br)C(C)C | lowest
O=C1C2=CC[C@H]3C(=O)N(Cc4ccc5c(c4)OCO5)C(=O)[C@H]3[C@H]2[C@H](O)[C@@H]2O[C@H]12 | middle

* * *

assay: E. coli acrAB mutant growth effects, primary screen, E. coli filamentation inducers, strain DRC39, OD650, 48 h (AID 1179);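 further: screen aims at cell division blockers that make cells filament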; conditions: E. coli DRC39 delta-acrAB growth, higher = more signal, called active from +8 up or from −8 down
observation-type: z-score

molecule | observation-type | obs-value
CC(C)N1CC=CC23O[C@@H]4C=CCCOC(=O)C4[C@H]2C(=O)N(CCCCCCO)[C@@H]3C1=O (some centres undefined) | z-score | 0.541
COC(=O)[C@@]1(Cc2ccc(OC)cc2)[C@H]2c3cc(C(=O)N4CCCC4)n(Cc4cc(F)c(F)c(F)c4)c3C[C@H]2CN1C(=O)c1ccccc1 | z-score | -0.254
CO[C@H]1COC(=O)[C@@H]2CCCN2C(=O)CC=C[C@@H](C)[C@H](OC)COC(=O)CC=C[C@@H]1C | z-score | 0.375
CC(C)=CCCC(C)=CCON=C1C[C@@H](O)[C@@H](O)[C@@H]2[C@@H]3C(=O)N(C[C@@H]4CCCO4)C(=O)[C@@H]3CC[C@@H]12 | z-score | 0.511

* * *

assay: small-molecule microarray binders of probe aNog, primary screen, biochemical, biotinylated probe, 635/667 nm fluorescence (AID 1115); settings: higher = more signal;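 further: probe is biotinylated aNog protein used at 0.15 µg/mL for 1 h at 4 C; z-score combines 667 nm fluorescence of each spot with its signal to noise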

molecule | composite z-score
CC(C)=CCCC(C)=CCON=C1C[C@@H](O)[C@@H](O)[C@@H]2[C@@H]3C(=O)N(C[C@@H]4CCCO4)C(=O)[C@@H]3CC[C@@H]12 | -0.319
CC(C)N1CC=CC23O[C@@H]4C=CCCOC(=O)C4[C@H]2C(=O)N(CCCCCCO)[C@@H]3C1=O (some centres undefined) | 0.0432
CO[C@@H]1COC(=O)CCC[C@@H](C)[C@H](OC)COC(=O)CCC[C@H]1C | -0.303
C=CC[C@@H]1C=C[C@H](ON=C[C@@H](OC)[C@H](C)C=CCC(=O)OC)[C@@H](CO)O1 | -0.526

* * *

system: XIP peptide (Xip251-270) binding; assay: small-molecule binders of XIP peptide, primary screen, biochemical, small-molecule microarray, fluorescence 635/667 nm, 0.1 µg/mL protein (AID 1182); conditions: fluorescent protein binding, 635 nm, higher = more signal, called active from +8 up or from −8 down
Reported composite z-score is given for each of the following molecules.

chemical-smiles | composite z-score
COc1ccccc1CN1C(=O)c2ccccc2[C@@H](C(=O)NCC(F)(F)F)[C@@H]1c1ccc(CO)cc1 | -0.51
CC(C)=NOCc1cccc(-c2cc(-c3ccccc3)no2)c1 | 1.13
CCCCCCc1nc(CCCc2cc3c(c(CCCCCC)n2)[Si](C(C)C)(C(C)C)O[C@H]3c2ccccc2)cc2c1[Si](C(C)C)(C(C)C)O[C@H]2c1ccccc1 | 0.285
C#CCCCON=C1C[C@@H](O)[C@@H](O)[C@@H]2[C@@H]3C(=O)N([C@@H](C)c4ccccc4)C(=O)[C@@H]3CC[C@H]12 | -0.396

* * *

assay: basal 3T3-L1 adipocyte mitochondrial potential changes, profiling panel, cell-based, JC-1 fluorescence, 3T3-L1 adipocytes, 24 h, 100 nL compound (AID 1168); details: JC-1 mitochondrial fluorescence, higher = more signal, called active from +8 up or from −8 down
Tick criterion met if z-score is -0.2 or greater. Tick criterion not met if z-score is less than -0.2.

chemical-smiles | category-label
COCCOC(=O)N1C(=O)[C@@]2(c3cc(C#CCNC(N)=O)ccc31)[C@H](c1ccccc1OCCO)N1[C@H](c3ccccc3)[C@H](c3ccccc3)OC(=O)[C@H]1[C@@H]2C(=O)N1CCN(c2ncccn2)CC1 | criterion met
[N-]=[N+]=NCc1ccccc1[C@@H]1OC(c2ccc(OCCCO)cc2)=N[C@]1(Cc1ccccc1)C(=O)N1CCOCC1 | criterion met
C[C@@H]1C=CCC(=O)OC[C@H](C)C(=O)N[C@@H](C)C(=O)OC1 | criterion not met
O=C1[C@H]2[C@H]3[C@H](O)[C@H](O)CC(=NOC[C@@H](O)COCc4ccco4)[C@H]3CC[C@H]2C(=O)N1C1CCCCC1 | criterion not met
COc1ccc([Si](C)(C)[C@@H]2[C@@H](CCO)O[C@]3(C(=O)N(Cc4ccc(NC(C)=O)cc4)c4ccccc43)[C@H]2C)cc1 | criterion met
O=C1[C@H]2[C@H]3[C@H](O)[C@H](O)CC(=NO[C@@H]4O[C@H](CO)[C@@H](O)[C@H](O)[C@H]4O)[C@@H]3CC[C@H]2C(=O)N1Cc1ccccc1 | criterion met
